Item-by-item account of fold decrease in turbidity
Biological target: P50402
Experiment: turbidity (absorbance at 395 nm); untagged semisynthetic EMD LCD ChIM library, 50 μM LCD, rapid dilution from strong denaturant into physiological buffer, n = 3
Details: other: turbidity (absorbance at 395 nm)
attribute.measured: fold decrease in turbidity (fold)

1. untagged semisynthetic EMD LCD 3×D_(195-199) (protein) RRLSPPSSSAASSYSFSDLNSTRGDADMYDLPKKEDALLYQSKGYNDDYYEESYFTTRTYGEPESAGPSRAVRQSVTSFPDADAFHHQVHDDDLLSSSEEECKDRERPMYGRDSAYQSITHYRPVSASRSSLDLSYYPTSSSTCFMSSSSSSSSWLTRRAIRPENRAPGAGLGQER ... 2.8
2. untagged semisynthetic EMD LCD 3×D_(191-195) (protein) RRLSPPSSSAASSYSFSDLNSTRGDADMYDLPKKEDALLYQSKGYNDDYYEESYFTTRTYGEPESAGPSRAVRQSVTSFPDADAFHHQVHDDDLLSSSEEECKDRERPMYGRDSAYQSITHYRPVSASRSSLDLSYYPTSSSTCFMSSSSSSSSWLTRRAIRPENRAPGAGLGQER ... 13.3
